Listing of entries alongside the reported activity change, negative = inhibition.
# Target desc: Cytochrome P450 3A4 (Homo sapiens) (UniProt P08684)
# Sequence (P08684 whole entry, looked up): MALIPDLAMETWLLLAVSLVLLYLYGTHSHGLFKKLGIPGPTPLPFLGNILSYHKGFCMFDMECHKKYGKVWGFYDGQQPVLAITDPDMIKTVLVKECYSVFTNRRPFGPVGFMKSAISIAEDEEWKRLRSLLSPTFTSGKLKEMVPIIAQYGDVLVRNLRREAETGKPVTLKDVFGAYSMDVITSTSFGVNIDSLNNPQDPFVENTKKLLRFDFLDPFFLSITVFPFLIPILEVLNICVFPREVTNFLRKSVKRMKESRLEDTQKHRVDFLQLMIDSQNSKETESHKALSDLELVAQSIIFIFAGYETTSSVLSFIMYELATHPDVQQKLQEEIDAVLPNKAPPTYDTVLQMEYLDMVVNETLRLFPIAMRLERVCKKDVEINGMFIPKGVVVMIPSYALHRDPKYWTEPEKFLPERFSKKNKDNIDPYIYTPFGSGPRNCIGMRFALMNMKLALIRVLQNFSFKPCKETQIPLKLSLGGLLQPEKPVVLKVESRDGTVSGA
# Procedure text: qHTS Assay for Inhibitors and Substrates of Cytochrome P450 3A4 (AID 884); note: % is set by controls: 0 for no effect and ±100 for the full control effect; nearly all actives have a fitted effect of over 50% in size
# Settings: recombinant CYP3A4, Luciferin-PPXE luminescence; series mostly up to 57.1 µM
Results filed as inconclusive are left out. The source made the active and inactive calls. Calls come from the whole dose curve; as a rule, active = well fitted inhibition curve with a large enough effect; inconclusive = small, poorly fitted or top-dose-only effect; inactive = no such curve, though single readings can be large or run the other way.
Assay readout: activity change, negative = inhibition

Cc1ccccc1OC1C=CC(C#Cc2ccc(Br)cc2)OC1CO (stereo unspecified)	-26.7% [at 11.4 µM] (inactive)
COc1cc(O)c(C(=O)/C=C/c2ccccc2)c(O)c1	-28.7% [at 11.4 µM] (inactive)
CC(C)C(=O)NC(=O)C1CCCN1C(=O)/C=C/c1ccccc1 (stereo unspecified)	-10.1% [at 11.4 µM] (inactive)
COC(=O)C1=C(C)N(Cc2ccccc2)[C@]23O[C@](C(=O)OC)(C(=O)N2C1c1ccccc1)C(C(=O)OC)C3C(=O)OC (stereo partly specified)	-20.8% [at 11.4 µM] (inactive)
CC1CCC2C(=O)N3C(CCC(C)C3c3ccc(-c4ccco4)cc3)C(=O)N2C1c1ccc(-c2ccco2)cc1 (stereo unspecified)	-11.9% [at 11.4 µM] (inactive)
COC(=O)NC(/C(C(=O)OC)=C(\C)NCc1ccccc1)c1cccc(C)c1 (stereo unspecified)	-22.4% [at 11.4 µM] (inactive)
CCN1C(C)=C(C(=O)OC)C(c2ccccc2)N2C(=O)[C@@]3(C(=O)OC)O[C@@]12C1C(=O)N(C)C(=O)C13 (stereo partly specified)	-27.7% [at 11.4 µM] (inactive)
OCC1OC(c2ccccc2)C=CC1Oc1ccc(C2CCCC2)cc1 (stereo unspecified)	-14.3% [at 11.4 µM] (inactive)
CCOC(=O)OCC1OC(C#Cc2ccc(C(C)(C)C)cc2)C=CC1OC(=O)OCC (stereo unspecified)	-12.4% [at 11.4 µM] (inactive)
Cc1cc(N)c2cc(OCCOc3ccc4nc(C)cc(N)c4c3)ccc2n1	-0.402% [at 11.4 µM] (inactive)
Cc1ccccc1OC1C=CC(c2ccccc2)OC1CO (stereo unspecified)	-11.7% [at 11.4 µM] (inactive)
CCOC(=O)OCC1OC(c2ccccc2)C=CC1Oc1ccc(F)cc1C (stereo unspecified)	-28.9% [at 11.4 µM] (inactive)
CC1(C)OC(C(O)(c2cccc3c2oc2ccccc23)c2cccc3c2oc2ccccc23)C(C(O)(c2cccc3c2oc2ccccc23)c2cccc3c2oc2ccccc23)O1 (stereo unspecified)	-15.2% [at 11.4 µM] (inactive)
C#CC(C)OC(=O)c1nnc2c3ccccc3n(COC)c2n1 (stereo unspecified)	-23.2% [at 11.4 µM] (inactive)
CCC(=O)CC(NC(=O)OC)c1ccc(F)cc1 (stereo unspecified)	-17.9% [at 11.4 µM] (inactive)
Cc1cc(=O)oc2cc(OC3C=CC(C#CC(C)(C)C)OC3CO)ccc12 (stereo unspecified)	-2.04% [at 11.4 µM] (inactive)
CC(C)CN1CCc2nc(-c3ccccc3)c3c(c2CC1)COC(C)C3 (stereo unspecified)	-18.5% [at 11.4 µM] (inactive)
O=C1/C(=C/c2ccccc2)Oc2ccccc21	-8.26% [at 11.4 µM] (inactive)
COC(=O)NC(CC(C)=O)c1ccccc1 (stereo unspecified)	-12.9% [at 11.4 µM] (inactive)
COC(=O)CC1=COC(O)C2C(CO)=CC[C@@H]12 (stereo partly specified)	-14.7% [at 11.4 µM] (inactive)
CC1CCC(C(=O)O)NC1c1ccc(C#CCN(C)C)cc1 (stereo unspecified)	-30.5% [at 11.4 µM] (inactive)

* * *

# Test system: CP217
# Procedure text: qHTS profiling for inhibitors of Plasmodium falciparum proliferation (AID 504749); note: nearly all actives have a fitted effect of over 60% in size
# Settings: P. falciparum in erythrocytes, SYBR Green DNA, 72 h; series mostly up to 28.7 µM
Results filed as inconclusive are left out. Active and inactive are the calls of the source. Calls come from the whole dose curve; as a rule, active = well fitted inhibition curve with a large enough effect; inconclusive = small, poorly fitted or top-dose-only effect; inactive = flat fitted curve, though single readings scatter. Bridge positions count the residues as written; N and C are the ends. Square brackets hold non-standard residues; d marks the D form. Peptide text beside a SMILES is read from it. * marks the point of attachment. ξ: configuration not given here. ξDab(CH2SO3H) = NC(CCNCS(=O)(=O)O)C(=O)O; Heptanoyl(6-Me) = CC(C)CCCCC(=O)*; Dab = NCC[CH](N)C(=O)O
Outcomes: active, inactive

CNCC(=O)NC(CCCN=C(N)N)C(=O)NC(C(=O)NC(Cc1ccc(O)cc1)C(=O)NC(C(=O)NC(Cc1cnc[nH]1)C(=O)N1CCCC1C(=O)NC(C)C(=O)O)C(C)C)C(C)C (configuration not stated)	inactive
O=C(OCC1OC(OC(=O)c2cc(O)c(O)c(OC(=O)c3cc(O)c(O)c(O)c3)c2)[C@@H](OC(=O)c2cc(O)c(O)c(OC(=O)c3cc(O)c(O)c(O)c3)c2)C(OC(=O)c2cc(O)c(O)c(OC(=O)c3cc(O)c(O)c(O)c3)c2)C1OC(=O)c1cc(O)c(O)c(OC(=O)c2cc(O)c(O)c(O)c2)c1)c1cc(O)c(O)c(OC(=O)c2cc(O)c(O)c(O)c2)c1 (some centres not stated)	active
CC(C)C(NC(=O)C(CC(=O)O)NC(=O)C(CCCCN)NC(=O)C(N)CCCN=C(N)N)C(=O)NC(Cc1ccc(O)cc1)C(=O)O (configuration not stated) (H-RKDVY-OH; configuration not given here)	inactive
CC(C)CC(NC(=O)C(COC(C)(C)C)NC(=O)C(Cc1ccc(O)cc1)NC(=O)C(CO)NC(=O)C(Cc1c[nH]c2ccccc12)NC(=O)C(Cc1cnc[nH]1)NC(=O)C1CCC(=O)N1)C(=O)NC(CCCN=C(N)N)C(=O)N1CCCC1C(=O)NNC(N)=O (configuration not stated)	inactive
CC(N)C(=O)NCC(=O)NC1CSSCC(C(=O)O)NC(=O)C(CO)NC(=O)C(C(C)O)NC(=O)C(Cc2ccccc2)NC(=O)C(C(C)O)NC(=O)C(CCCCN)NC(=O)C(Cc2c[nH]c3ccccc23)NC(=O)C(Cc2ccccc2)NC(=O)C(Cc2ccccc2)NC(=O)C(CC(N)=O)NC(=O)C(CCCCN)NC1=O (configuration not stated)	inactive
CCC(C)C1NC(=O)C(Cc2ccc(O)cc2)NC(=O)C(N)CSSCC(C(=O)N2CCCC2C(=O)NC(CC(C)C)C(=O)NCC(N)=O)NC(=O)C(CC(N)=O)NC(=O)C(CCC(N)=O)NC1=O (configuration not stated)	inactive
CCC(C)C1NC(=O)C(CCNCS(=O)(=O)O)NC(=O)C(NC(=O)C(CCNCS(=O)(=O)O)NC(=O)C(NC(=O)C(CCNCS(=O)(=O)O)NC(=O)CCCCC(C)C)C(C)O)CCNC(=O)C(C(C)O)NC(=O)C(CCNCS(=O)(=O)O)NC(=O)C(CCNCS(=O)(=O)O)NC(=O)C(C(C)CC)NC1=O (configuration not stated) ({Heptanoyl(6-Me)}-[ξDab(CH2SO3H)]T[ξDab(CH2SO3H)][Dab][ξDab(CH2SO3H)]II[ξDab(CH2SO3H)][ξDab(CH2SO3H)]T; lactam 4-C; configuration not given here)	inactive

* * *

# System: CP265
# Procedure text: qHTS profiling for inhibitors of Plasmodium falciparum proliferation (AID 504749); note: nearly all actives have a fitted effect of over 60% in size
# Settings: P. falciparum in erythrocytes, SYBR Green DNA, 72 h; series mostly up to 28.7 µM
Results filed as inconclusive are left out. The source made the active and inactive calls. The call rests on the fitted dose curve; in most records, active means well fitted inhibition curve with a large enough effect; inconclusive means small, poorly fitted or top-dose-only effect; inactive means flat fitted curve, though single readings scatter. Numbered stars: 1 amine (or outer) side, 2 acyl side, 3 side chain; on linkers, the order of the positions; unused ones are H or OH. Bridge positions count the residues as written; N and C are the ends. Square brackets hold non-standard residues; d marks the D form. Peptide text beside a SMILES is read from it. * marks the point of attachment. ξ: configuration not given here. ΔAla(Z-3-ureido) = NC(=O)N/C=C(\N)C(=O)O; X2 = NC1=NC(O)CC(C(N[*:1])C(=O)[*:2])N1; ξβ3hOrn = NCCCC(N)CC(=O)*; Orn = NCCC[CH](N)C(=O)O; Dap = NC[CH](N)C(=O)O
Classes used: active, inactive

CC(C)CC(NC(=O)C(COC(C)(C)C)NC(=O)C(Cc1ccc(O)cc1)NC(=O)C(CO)NC(=O)C(Cc1c[nH]c2ccccc12)NC(=O)C(Cc1cnc[nH]1)NC(=O)C1CCC(=O)N1)C(=O)NC(CCCN=C(N)N)C(=O)N1CCCC1C(=O)NNC(N)=O (configuration not stated)	inactive
CC(=O)OCC1=C(C(=O)O)N2C(=O)C(NC(=O)Cc3ccccc3)C2SC1 (configuration not stated)	inactive
C=CC1=C(C(=O)O)N2C(=O)[C@@H](NC(=O)C(N=O)c3csc(N)n3)[C@H]2SC1 (some centres not stated)	inactive
CC(C)C[C@H](NC(=O)[C@@H](Cc1c[nH]c2ccccc12)NC(=O)[C@@H](Cc1ccc(O)cc1)NC(=O)[C@@H](CO)NC(=O)[C@@H](Cc1c[nH]c2ccccc12)NC(=O)C(Cc1cnc[nH]1)NC(=O)C1CCC(=O)N1)C(=O)N[C@@H](CCCN=C(N)N)C(=O)N1CCC[C@@H]1C(=O)NCC(N)=O (some centres not stated)	inactive
Cn1cc(O)nc1NC(=O)Nc1cccc(Cl)c1	inactive
CNCC(=O)NC(CCCN=C(N)N)C(=O)NC(C(=O)NC(Cc1ccc(O)cc1)C(=O)NC(C(=O)NC(Cc1cnc[nH]1)C(=O)N1CCCC1C(=O)NC(C)C(=O)O)C(C)C)C(C)C (configuration not stated)	inactive
CC1(C)C(/C=C/C=C/C=C/C=C2\N(CCCCS(=O)(=O)O)c3ccc4ccccc4c3C2(C)C)=[N+](CCCCS(=O)(=O)[O-])c2ccc3ccccc3c21	inactive
CC(C)CC1NC(=O)C(CCCN)NC(=O)C(C(C)C)NC(=O)C2CCCN2C(=O)C(Cc2ccccc2)NC(=O)C(CC(C)C)NC(=O)C(CCCN)NC(=O)C(C(C)C)NC(=O)C2CCCN2C(=O)C(Cc2ccccc2)NC1=O (configuration not stated) (cyclo(FPV[Orn]LFPV[Orn]L); configuration not given here)	active
CCC(Oc1ccccc1)C(=O)NC1C(=O)N2C1SC(C)(C)C2C(=O)O (configuration not stated)	inactive
CC(=O)OCC(=O)[C@@]1(O)CCC2C3CCC4=CC(=O)CC[C@]4(C)C3=CC[C@@]21C (some centres not stated)	inactive
COc1ccc(-c2nc3ccc(C4=C(C)CC(=O)NN4)cc3[nH]2)cc1	inactive
NCCCC(N)CC(=O)NC1CNC(=O)C(C2CC(O)N=C(N)N2)NC(=O)/C(=C/NC(N)=O)NC(=O)C(CO)NC(=O)C(CO)NC1=O (stereo not drawn) (ξβ3hOrn-[Dap]SS[ΔAla(Z-3-ureido)][X2]; lactam 1-C; configuration not given here)	inactive
